From: paper PMC5540273

- System: ERBB4
- Experimental Parameters: concentration: 1 μM, replicates: in singlicate; n = 1;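 also: KINOMEscan kinase panel screen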
Result Type: %Inh (%)
Give bare numbers, in %.

Here is how some compounds turned out for %Inh.
Compound: Cl.O=C(Nc1cccc(-c2nn3ncccc3c2-c2ccnc(Nc3cccnc3)n2)c1)c1c(F)cccc1F [GSK312879]
Experimental Target: ERBB4
%Inh, %: 93.2
--
Compound: Cc1ccc(C(=O)Nc2ccc(Nc3ccnc4cc(-c5ccccn5)ccc34)cc2O)cc1.Cl [GW440146]
Experimental Target: ERBB4
%Inh, %: 31
--
Compound: O=c1cc(N2CCOCC2)nc2n(Cc3cccc(Cl)c3Cl)ccn12 [GSK2286295]
Experimental Target: ERBB4
%Inh, %: 0
--
Compound: COC(=O)c1c(-c2ccccc2)c2cc(OC)ccc2c(=O)n1Cc1ccccc1
Experimental Target: ERBB4
%Inh, %: 0
--
Compound: Cc1nnc(-c2ccc3occ(-c4ccc(S(C)=O)cc4)c3c2)[nH]1 (stereo not shown)
Experimental Target: ERBB4
%Inh, %: 5
--
Compound: O=S(=O)(c1ccc(-c2ccnc3[nH]ccc23)cc1)N1CCCC1 [GSK846226]
Experimental Target: ERBB4
%Inh, %: 0
--
Compound: C[C@@H]1CCCCN1c1cc(-c2ccc3c(N)n[nH]c3c2)nc(N)n1 [GSK2258759]
Experimental Target: ERBB4
%Inh, %: 12
--
Compound: CC1=C(C(=O)Nc2cc3cn[nH]c3cc2F)C(c2ccc(C(F)(F)F)cc2)CC(=O)N1 (stereo not shown) [GSK429286]
Experimental Target: ERBB4
%Inh, %: 63
--
Compound: COc1ccc(Nc2nccc(NCCNC(=O)Nc3ccccc3F)n2)cc1 [GSK1379901]
Experimental Target: ERBB4
%Inh, %: 45
--
Compound: CN1C(=O)C(Nc2ccc(Cl)c(C(=O)O)c2)=C(c2ccc(Cl)cc2)C1=O [SB-404290]
Experimental Target: ERBB4
%Inh, %: 8

Consider the following items and state reported %Inh for each.
1. Cc1csc(-c2nc(Nc3ccncc3)c3ccccc3n2)n1 [GW869640]
2. CC(C)(C)c1ccc(C(=O)Nc2cn3cc(Cl)ccc3n2)cc1
3. NC(=O)c1nnc2ccccc2c1N
4. COc1cc2ncn(-c3cc(OCC4CCCO4)c(C(N)=O)s3)c2cc1OC (stereo not shown) [GSK204607]
5. Cl.Oc1ccc(-c2nc(-c3ccccc3)[nH]c2-c2ccncc2)cc1 [SB-428218]
6. O=C(O)COc1ncnc2cc(-c3ccc4[nH]ncc4c3)sc12
7. O=C(Nc1n[nH]c2nc(-c3nccs3)c(Br)cc12)C1CCCC1 [SB-742609]
8. Cl.c1ccc(-c2n[nH]cc2-c2ccnc(-c3ccc(CN4CCOCC4)cc3)c2)nc1 [GW776245]

[0, 0, 4, 0, 27, 15, 0, 2]

Using ERBB4 as the test system, report measured %Inh of `Cn1ccc2ncnc(Oc3ccc(NC(=O)Nc4ccccc4)cc3)c21` . 0

----------
- System: SRMS
- Experimental Parameters: concentration: 1 μM, replicates: in singlicate; n = 1
Result Type: %Inh (%)
One number for each entry, in %.

Here is how some compounds turned out for %Inh.
Test Smiles: Cl.Oc1ccc(-c2nc(-c3ccccc3)[nH]c2-c2ccncc2)cc1
%Inh, %: 7
//
Test Smiles: Cc1ccc(NC(=O)Nc2cccc(Cl)c2)cc1-c1ccc(C(=O)Nc2ccncc2)cc1
%Inh, %: 0
//
Test Smiles: CS(=O)(=O)c1ccc(-c2nc3n(c2-c2ccncc2)CCC3)cc1
%Inh, %: 0
//
Test Smiles: NC(=O)c1nnc2ccccc2c1N
%Inh, %: 0
//
Test Smiles: Cn1ccc2ncnc(Oc3ccc(NC(=O)Nc4ccccc4)cc3)c21
%Inh, %: 0

Consider the following items and state reported %Inh for each.
1. COc1cccc(-c2cc(-c3c[nH]nc3-c3ccccn3)ccn2)c1
2. Nc1ncnc2[nH]c(-c3ccccc3)nc12
3. Fc1cc(Cl)ccc1Nc1ccnc2cc(I)ccc12
4. CSc1nn2c(=O)cc(N3CCOCC3)nc2n1Cc1cccc(C(F)(F)F)c1C
5. Fc1cc(Cl)ccc1Nc1ccnc2cc(-c3ccc(CN4CCCCC4)o3)ccc12
6. O=C(O)COc1ncnc2cc(-c3ccc4[nH]ncc4c3)sc12

1: 2; 2: 2; 3: 0; 4: 0; 5: 0; 6: 8

Consider the following items and state reported %Inh for each.
1. Cc1cc(N2Cc3ccccc3C2)nc(Nc2ccc(S(=O)(=O)N3CCOCC3)cc2)n1.Cl
2. Cc1csc(-c2nc(Nc3ccncc3)c3ccccc3n2)n1
3. Nc1nc(-c2nccs2)c(-c2ccnc3ccccc23)s1
4. O=S(=O)(c1ccc(-c2ccnc3[nH]ccc23)cc1)N1CCCC1
5. Cc1c(Cn2ccn3c(=O)cc(N4CCOCC4)nc23)cccc1C(F)(F)F

1: 0; 2: 25; 3: 0; 4: 0; 5: 0

Consider the following items and state reported %Inh for each.
1. Cc1cccc(-c2nc(C)cc(Nc3ccncc3)n2)n1
2. Cc1c(O)cccc1Nc1ccnc2ccc(C(F)(F)F)cc12.Cl
3. Cc1ccc(NC(=O)Nc2cc(C(C)(C)C)nn2-c2ccccc2)cc1

1. 0
2. 1
3. 0

For `COc1ccc2nc(-c3cccc(C)n3)nc(Nc3ccncc3)c2c1` , write its %Inh. 0

----------
- Tested on: PIK3CD
- Experimental Parameters: concentration: 1 μM, replicates: in singlicate; n = 1
Result Type: %Inh (%)
Numbers only, in %.

Consider the following items and state reported %Inh for each.
1. Cc1c(Cn2ccn3c(=O)cc(N4CCOCC4)nc23)cccc1C(F)(F)F
2. COc1ccc(CNC(=O)NC2CCN(c3ccnc(Nc4cc(OC)c(OC)c(OC)c4)n3)C2)cc1 (stereo not drawn)
3. Cc1cc(-c2ccc3c(c2)CC[C@@H](N[C@@H](C)c2ccccc2)C3)cnc1N.Cl
4. O=C(Nc1n[nH]c2nc(-c3nccs3)c(Br)cc12)C1CC1
5. O=C1NC(=O)C(N2CCc3ccccc32)=C1c1ccccc1Cl
6. COc1ccccc1CNC(=O)c1cc(C(=O)c2ccccc2C)c[nH]1

1. 92
2. 3
3. 0
4. 0
5. 10
6. 0

Consider the following items and state reported %Inh for each.
1. CS(=O)(=O)c1ccc(-c2nc3n(c2-c2ccncc2)CCC3)cc1
2. Cn1ccc2ncnc(Oc3cccc(C(=O)Nc4ccccc4)c3)c21
3. O=S(=O)(c1ccc(-c2ccnc3[nH]ccc23)cc1)N1CCCC1
4. CN1C(=O)C(Nc2ccc(Cl)c(C(=O)O)c2)=C(c2ccc(Cl)cc2)C1=O

1. 0
2. 27
3. 0
4. 0

Consider the following items and state reported %Inh for each.
1. Cc1cccc(-c2nc(Nc3ccc4[nH]ncc4c3)c3ccccc3n2)n1
2. Cc1cccc(-c2cc(Nc3ccncc3)c3ccccc3n2)n1
3. Clc1cc(Cl)cc(Nc2ccnc(Nc3cc(Cl)cc(Cl)c3)n2)c1

1: 18; 2: 0; 3: 38

----------
- System: VPS34
- Construct: gene PIK3C3
- Experimental Parameters: concentration: 1 μM, replicates: in singlicate; n = 1
Kindly supply the reported %Inh values for the records listed here.
Give bare numbers, in %.

Molecule: Fc1cc(Cl)ccc1Nc1ccnc2cc(-c3ccc(CN4CCCCC4)o3)ccc12 [GW560116]
Result Type: %Inh
Result: 22
--
Molecule: Cc1c(Cn2ccn3c(=O)cc(N4CCOCC4)nc23)cccc1C(F)(F)F [GSK2289044]
Result Type: %Inh
Result: 95.1

Consider the following items and state reported %Inh for each.
1. Cn1cncc1-c1ccc2ncnc(Nc3ccc(OCc4ccccc4)cc3)c2c1 [GW320571]
2. O=C(Nc1ccc2c(c1)OCO2)NC1CCN(c2ccnc(Nc3ccc(F)cc3)n2)C1 (stereo not drawn) [GSK1379724]
3. COc1cc(Nc2nccc(N3CCC(NC(=O)Nc4cc(C)ccc4C)C3)n2)cc(OC)c1OC (stereo not drawn) [GSK1379762]
4. O=C(Nc1n[nH]c2nc(-c3nccs3)c(Br)cc12)C1CCCC1 [SB-742609]
5. O=C(Nc1ccccc1)Nc1cccc(Oc2ccc3nccn3n2)c1

1: 23; 2: 0; 3: 0; 4: 0; 5: 0

Consider the following items and state reported %Inh for each.
1. Fc1cccc(COc2nnc(-c3ccc4c(c3)CCO4)o2)c1
2. CN1C(=O)C(Nc2ccc(Cl)c(C(=O)O)c2)=C(c2ccc(Cl)cc2)C1=O [SB-404290]

17
28

----------
- System: PIP5K1C
- Experimental Parameters: concentration: 1 μM, replicates: in singlicate; n = 1
Result Type: %Inh (%)
Numbers only, in %.

Here is how some compounds turned out for %Inh.
Compound: COc1ccc(C2=C(Nc3cccc(C(=O)O)c3)C(=O)NC2=O)cc1 [SB-390765]
Result Type: %Inh
Unit: %
Result: 4

Compound: Cn1ccc2ncnc(Oc3cccc(C(=O)Nc4ccccc4)c3)c21
Result Type: %Inh
Unit: %
Result: 0

Compound: Cn1ccc2ncnc(Oc3ccc(NC(=O)Nc4ccccc4)cc3)c21
Result Type: %Inh
Unit: %
Result: 5

Compound: O=C(O)COc1ncnc2cc(-c3ccc4[nH]ncc4c3)sc12
Result Type: %Inh
Unit: %
Result: 0

Compound: Cl.c1ccc(-c2n[nH]cc2-c2ccnc(-c3ccc(CN4CCOCC4)cc3)c2)nc1 [GW776245]
Result Type: %Inh
Unit: %
Result: 27

Compound: Cc1ccc(-c2cc(-c3c[nH]nc3-c3ccccn3)ccn2)cc1 [GW684088]
Result Type: %Inh
Unit: %
Result: 71

Consider the following items and state reported %Inh for each.
1. Cc1cc(NCC(c2ccccc2)c2ccccc2)nc(NCc2ccc(C(F)(F)F)cc2)n1 [GW497681]
2. COc1ccc(Nc2nccc(NCCNC(=O)Nc3ccccc3F)n2)cc1 [GSK1379901]
3. CN(C)CCN(C)C(=O)c1cc(-c2ccncc2)c(-c2ccc(Cl)c(O)c2)o1.Cl.Cl [SB-710397]

1: 53; 2: 33; 3: 67
